system: Escherichia coli TOP10; experiment: shrunken log2 fold change of peptide-encoding DNA abundance (4.5 h post-induction vs induction); higher = less antimicrobial activity (less host growth inhibition); conditions: time post-induction: 4.5 h; library: site-saturation at positions 5, 18, 19, 20;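 further: peptides expressed intracellularly from a pBAD plasmid library in pooled LB shake-flask culture, induced with 0.3% L-arabinose, DNA abundance read by NGS, three biological replicates, DESeq2 with apeglm shrinkage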
PROPERTY MEASURED: shrunken log2 fold change

SEQUENCE INPUT: RRIRNRPPRLPRPRPRPLWPPRP
REPORTED RESULT: 0.14
--
SEQUENCE INPUT: RRIRQRPPRLPRPRPRPLLVPRP
REPORTED RESULT: -0.295
--
SEQUENCE INPUT: RRIRTRPPRLPRPRPRPDIGPRP
REPORTED RESULT: -0.187
--
SEQUENCE INPUT: RRIRYRPPRLPRPRPRPDGHPRP
REPORTED RESULT: -0.024
--
SEQUENCE INPUT: RRIRCRPPRLPRPRPRPLFSPRP
REPORTED RESULT: 2.05
--
SEQUENCE INPUT: RRIRWRPPRLPRPRPRPVPGPRP
REPORTED RESULT: 0.491
--
SEQUENCE INPUT: RRIRCRPPRLPRPRPRPYGRPRP
REPORTED RESULT: -0.114
--
SEQUENCE INPUT: RRIRLRPPRLPRPRPRPFTMPRP
REPORTED RESULT: -0.764
--
SEQUENCE INPUT: RRIRVRPPRLPRPRPRPRDTPRP
REPORTED RESULT: -0.0483
--
SEQUENCE INPUT: RRIRCRPPRLPRPRPRPNYFPRP
REPORTED RESULT: -0.763
--
SEQUENCE INPUT: RRIRQRPPRLPRPRPRPNSGPRP
REPORTED RESULT: -0.0316
--
SEQUENCE INPUT: RRIRARPPRLPRPRPRPIQEPRP
REPORTED RESULT: 0.116
--
SEQUENCE INPUT: RRIRWRPPRLPRPRPRPNWCPRP
REPORTED RESULT: -0.0188
--
SEQUENCE INPUT: RRIRNRPPRLPRPRPRPIKIPRP
REPORTED RESULT: -0.357
--
SEQUENCE INPUT: RRIRSRPPRLPRPRPRPKCIPRP
REPORTED RESULT: -0.256
--
SEQUENCE INPUT: RRIRQRPPRLPRPRPRPDTGPRP
REPORTED RESULT: -0.0117
--
SEQUENCE INPUT: RRIRQRPPRLPRPRPRPDWQPRP
REPORTED RESULT: 0.0854
--
SEQUENCE INPUT: RRIRNRPPRLPRPRPRPVSGPRP
REPORTED RESULT: 0.172
--
SEQUENCE INPUT: RRIRGRPPRLPRPRPRPACTPRP
REPORTED RESULT: 1.17
--
SEQUENCE INPUT: RRIRYRPPRLPRPRPRPLIFPRP
REPORTED RESULT: -1.08
--
SEQUENCE INPUT: RRIRWRPPRLPRPRPRPVHLPRP
REPORTED RESULT: -0.00868
--
SEQUENCE INPUT: RRIRWRPPRLPRPRPRPPKKPRP
REPORTED RESULT: 1.27
--
SEQUENCE INPUT: RRIRSRPPRLPRPRPRPVNSPRP
REPORTED RESULT: -0.365
--
SEQUENCE INPUT: RRIRIRPPRLPRPRPRPYPQPRP
REPORTED RESULT: -0.974
--
SEQUENCE INPUT: RRIRARPPRLPRPRPRPREIPRP
REPORTED RESULT: 0.865
--
SEQUENCE INPUT: RRIRVRPPRLPRPRPRPHQLPRP
REPORTED RESULT: -0.243
--
SEQUENCE INPUT: RRIRRRPPRLPRPRPRPQEYPRP
REPORTED RESULT: -0.0725
--
SEQUENCE INPUT: RRIRDRPPRLPRPRPRPMTDPRP
REPORTED RESULT: -0.109
--
SEQUENCE INPUT: RRIRMRPPRLPRPRPRPEQCPRP
REPORTED RESULT: -0.00138
--
SEQUENCE INPUT: RRIRSRPPRLPRPRPRPEHRPRP
REPORTED RESULT: -0.00155
--
SEQUENCE INPUT: RRIRERPPRLPRPRPRPNEHPRP
REPORTED RESULT: -0.445
--
SEQUENCE INPUT: RRIRSRPPRLPRPRPRPTNWPRP
REPORTED RESULT: 0.0446
--
SEQUENCE INPUT: RRIRPRPPRLPRPRPRPHCKPRP
REPORTED RESULT: -0.633
--
SEQUENCE INPUT: RRIRFRPPRLPRPRPRPLHCPRP
REPORTED RESULT: 0.0254
--
SEQUENCE INPUT: RRIRYRPPRLPRPRPRPDRRPRP
REPORTED RESULT: -0.177
--
SEQUENCE INPUT: RRIRCRPPRLPRPRPRPMGDPRP
REPORTED RESULT: -0.0113
--
SEQUENCE INPUT: RRIRWRPPRLPRPRPRPTPDPRP
REPORTED RESULT: 0.746
--
SEQUENCE INPUT: RRIRERPPRLPRPRPRPMPMPRP
REPORTED RESULT: -0.0464
--
SEQUENCE INPUT: RRIRQRPPRLPRPRPRPQIDPRP
REPORTED RESULT: -0.0357
--
SEQUENCE INPUT: RRIRRRPPRLPRPRPRPCCWPRP
REPORTED RESULT: 0.322
--
SEQUENCE INPUT: RRIRSRPPRLPRPRPRPDYDPRP
REPORTED RESULT: -0.0947
--
SEQUENCE INPUT: RRIRGRPPRLPRPRPRPQGIPRP
REPORTED RESULT: -0.128
--
SEQUENCE INPUT: RRIRCRPPRLPRPRPRPFWEPRP
REPORTED RESULT: -0.0195
--
SEQUENCE INPUT: RRIRMRPPRLPRPRPRPGQHPRP
REPORTED RESULT: 0.406
--
SEQUENCE INPUT: RRIRFRPPRLPRPRPRPKYYPRP
REPORTED RESULT: -0.386
--
SEQUENCE INPUT: RRIRTRPPRLPRPRPRPIVEPRP
REPORTED RESULT: 0.0431
--
SEQUENCE INPUT: RRIRTRPPRLPRPRPRPWGLPRP
REPORTED RESULT: 0.00838
--
SEQUENCE INPUT: RRIRIRPPRLPRPRPRPSDQPRP
REPORTED RESULT: -0.528
--
SEQUENCE INPUT: RRIRWRPPRLPRPRPRPVCYPRP
REPORTED RESULT: 0.028
--
SEQUENCE INPUT: RRIRQRPPRLPRPRPRPGSVPRP
REPORTED RESULT: 0.241
--
SEQUENCE INPUT: RRIRLRPPRLPRPRPRPKNQPRP
REPORTED RESULT: -0.202
--
SEQUENCE INPUT: RRIRRRPPRLPRPRPRPVTIPRP
REPORTED RESULT: 0.297
--
SEQUENCE INPUT: RRIRHRPPRLPRPRPRPGGLPRP
REPORTED RESULT: 0.117
--
SEQUENCE INPUT: RRIRDRPPRLPRPRPRPSVNPRP
REPORTED RESULT: 0.0833
--
SEQUENCE INPUT: RRIRFRPPRLPRPRPRPAVPPRP
REPORTED RESULT: 0.0613
--
SEQUENCE INPUT: RRIRIRPPRLPRPRPRPYKNPRP
REPORTED RESULT: -0.814
--
SEQUENCE INPUT: RRIRGRPPRLPRPRPRPAGGPRP
REPORTED RESULT: 0.714
--
SEQUENCE INPUT: RRIRYRPPRLPRPRPRPVRIPRP
REPORTED RESULT: -0.053
--
SEQUENCE INPUT: RRIRIRPPRLPRPRPRPTCSPRP
REPORTED RESULT: -0.371
--
SEQUENCE INPUT: RRIRWRPPRLPRPRPRPYERPRP
REPORTED RESULT: -0.0653
--
SEQUENCE INPUT: RRIRIRPPRLPRPRPRPPKAPRP
REPORTED RESULT: -0.0729
--
SEQUENCE INPUT: RRIRYRPPRLPRPRPRPERMPRP
REPORTED RESULT: -0.459
--
SEQUENCE INPUT: RRIRERPPRLPRPRPRPWFGPRP
REPORTED RESULT: 0.0197
